Quick reference for CC50 at 24 h among some compounds
# protocol.notes: Cytotoxicity against HEK293 cells assessed as reduction in cell viability measured after 24 hrs by Celltiter-glo assay
# Assay type: cell-based
# measurement.context: human
Write the number in µM without appending the unit.

compound: C=C1CC[C@@H]2[C@](C)(CO)[C@H](O)CC[C@@]2(C)[C@@H]1C/C=C/C(C)=O
observable: CC50 at 24 h
readout.value: 67

Read the next record carefully.
Exam item: For C=C1CC[C@@H]2[C@](C)(CO)[C@H](O)CC[C@@]2(C)[C@@H]1C/C=C1/C(=O)OC[C@H]1O [ANDROGRAPHOLIDE] , what is its reported CC50 at 24 h?
Marked response: 26.2
